STUDY_TARGET: human delta-like ligand 3 (DLL3) on SHP77 cells (human) (UniProt Q9NYJ7)
Sequence (Q9NYJ7 27-618, stated change not applied): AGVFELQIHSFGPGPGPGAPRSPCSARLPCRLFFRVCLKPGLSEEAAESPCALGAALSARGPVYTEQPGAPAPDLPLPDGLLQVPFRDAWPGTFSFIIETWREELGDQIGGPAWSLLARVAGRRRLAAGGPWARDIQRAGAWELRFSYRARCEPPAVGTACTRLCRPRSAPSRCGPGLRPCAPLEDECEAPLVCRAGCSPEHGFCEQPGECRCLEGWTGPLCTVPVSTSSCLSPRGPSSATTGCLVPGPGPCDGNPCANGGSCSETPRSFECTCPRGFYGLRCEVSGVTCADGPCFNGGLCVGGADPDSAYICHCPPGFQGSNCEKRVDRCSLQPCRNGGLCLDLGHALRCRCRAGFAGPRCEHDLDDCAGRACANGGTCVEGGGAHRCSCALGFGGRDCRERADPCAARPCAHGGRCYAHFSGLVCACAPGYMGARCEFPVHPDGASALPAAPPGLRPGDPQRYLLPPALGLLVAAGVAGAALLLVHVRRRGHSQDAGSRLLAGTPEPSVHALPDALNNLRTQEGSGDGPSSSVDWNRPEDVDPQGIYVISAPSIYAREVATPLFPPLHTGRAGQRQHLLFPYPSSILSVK
EXPERIMENT_DESCRIPTION: FACS on SHP77 cells
Parameter MFI at 0.0064 nM: see the listing below.
REPORTED_PROPERTY: MFI at 0.0064 nM (MFI)

• Hab014VL3VH1-hFc (scFv, part only; not given: VL-VH linker and human IgG1 Fc, V domains shown, not shown: another chain or arm of the molecule; a dimerising Fc or GST; small tags and cut ends) VL: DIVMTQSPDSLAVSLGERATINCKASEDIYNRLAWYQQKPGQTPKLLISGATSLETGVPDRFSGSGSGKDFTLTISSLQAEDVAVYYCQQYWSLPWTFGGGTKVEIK VH: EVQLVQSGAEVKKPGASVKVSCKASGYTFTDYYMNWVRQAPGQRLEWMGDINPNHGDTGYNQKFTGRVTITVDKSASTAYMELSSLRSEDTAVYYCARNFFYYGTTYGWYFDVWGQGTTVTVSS = 96
• Hab015VL4VH1b-hFc (scFv, part only; not given: VL-VH linker and human IgG1 Fc, V domains shown, not shown: another chain or arm of the molecule; a dimerising Fc or GST; small tags and cut ends) VL: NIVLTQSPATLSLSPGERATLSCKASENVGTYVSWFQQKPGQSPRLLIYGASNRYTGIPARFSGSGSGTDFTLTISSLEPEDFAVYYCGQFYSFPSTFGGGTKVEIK VH: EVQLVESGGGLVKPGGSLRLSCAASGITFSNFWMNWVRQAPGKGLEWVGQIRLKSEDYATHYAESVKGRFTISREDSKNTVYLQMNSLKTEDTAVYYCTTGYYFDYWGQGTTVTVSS = 113
• Hab015VL4VH5a-hFc (scFv, part only; not given: VL-VH linker and human IgG1 Fc, V domains shown, not shown: another chain or arm of the molecule; a dimerising Fc or GST; small tags and cut ends) VL: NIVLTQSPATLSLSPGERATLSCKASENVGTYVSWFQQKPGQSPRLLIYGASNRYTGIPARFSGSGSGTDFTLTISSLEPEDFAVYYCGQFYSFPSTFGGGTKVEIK VH: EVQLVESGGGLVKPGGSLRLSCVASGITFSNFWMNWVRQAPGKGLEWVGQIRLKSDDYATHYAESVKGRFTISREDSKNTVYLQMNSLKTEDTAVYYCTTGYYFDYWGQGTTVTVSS = 117
